- METHOD_DESCRIPTION: CCTE_Padilla_ZF_Score.Edema: CCTE's 144 Hour Post-fertilization zebrafish Assay Score for Edema Malformation, Padilla Lab (AID 2284406)
Active and inactive are the calls of the source. The calls were made as follows: active = hit-call score of the fitted dose curve at least 0.9, where 1 is the maximum; inactive = score below 0.9.
Outcome (select one): active, inactive

>>> classification("O=C(O)C=C(C(F)(F)F)C(F)(F)F")
"inactive"
>>> classification("NC(=O)C(F)(F)C(F)(F)C(F)(F)C(F)(F)F")
"inactive"

Please turn your attention to the following entry.
Request: What did the test return for C=C(C)C(=O)OCCC(F)(F)C(F)(F)C(F)(F)C(F)(F)C(F)(C(F)(F)F)C(F)(F)F ?
Response: inactive

* * *

- METHOD_DESCRIPTION: ATG_GLI_CIS: Attagene CIS-FACTORIAL HepG2 Assay for human Zinc Finger Protein GLI1 (AID 2282945)
- CONDITION_INFO: HepG2, Attagene cis-factorial reporter mRNA, GLI element; actives raise or lower the signal
The source made the active and inactive calls. The calls were made as follows: active = hit-call score of the fitted dose curve at least 0.9, where 1 is the maximum; inactive = score below 0.9.
Can you answer with just one of these options? active, inactive

>>> classification("O[Si](c1ccccc1)(c1ccccc1)c1ccccc1")
"active"
>>> classification("CCCCCCS")
"inactive"
>>> classification("O=C(O)C(F)(F)C(F)(F)C(F)(F)F")
"inactive"
>>> classification("Nc1ccc(Oc2cccc(Oc3ccc(N)cc3)c2)cc1")
"active"
>>> classification("C=CC(=O)OCC(F)(F)C(F)(F)C(F)(F)C(F)(F)COC(=O)C=C")
"active"
>>> classification("OCC(F)(F)C(F)(F)C(F)(F)C(F)F")
"inactive"
>>> classification("O=C(O)C(F)(F)C(F)(F)C(F)(F)C(F)(F)C(F)(F)C(F)(F)C(F)(F)C(F)(F)C(F)(F)C(F)(F)C(F)(F)C(F)(F)C(F)(F)F")
"inactive"
>>> classification("CS(C)(=O)=O")
"inactive"
>>> classification("NC(=O)C(F)(F)C(F)(F)C(F)(F)C(F)(F)F")
"inactive"
>>> classification("Nc1cc(Cl)c(N)c(Cl)c1")
"inactive"

Request: Dear colleague, could you share the recorded outcome for CC(CCl)OP(=O)(OC(C)CCl)OC(C)CCl (configuration not stated) when you have a moment?
Response: inactive

Request: // param item: FC(F)(F)C(F)(F)C(F)(F)N(C(F)(F)C(F)(F)C(F)(F)F)C(F)(F)C(F)(F)C(F)(F)F ; yields the recorded call
Response: inactive

Request: Status in this test for O=C(O)C(F)(OC(F)(F)C(F)(OC(F)(F)C(F)(F)C(F)(F)F)C(F)(F)F)C(F)(F)F (configuration not stated) ?
Response: inactive

Request: # fetch the recorded call for COC(OC(C)=O)c1ccccc1 (configuration not stated) here
Response: inactive

Request: Test call for this molecule, please: c1ccc(-c2ccccc2-c2ccccc2)cc1
Response: inactive

Request: Which outcome was assigned to C=CC(F)(F)C(F)(F)C(F)(F)C(F)(F)C(F)(F)C(F)(F)C(F)(F)C(F)(F)F in this test?
Response: inactive

Request: Hi, do you know how O=C(O)C(F)(F)C(F)(F)OC(F)(F)F came out in this test?
Response: inactive

Request: Give the logged outcome of this assay for the following molecule: CC(C)OC(=O)c1ccccc1C(=O)OC(C)C
Response: inactive

Request: In this assay, the call recorded for CC(C)c1ccccc1N was what?
Response: inactive

Request: What classification did Cc1cccc(N(C)C)c1 end up with in this test?
Response: inactive

Request: Called result for O=C(O)C=C(C(F)(F)F)C(F)(F)F
Response: inactive

Request: Call for entry OCC(F)(F)C(F)(F)C(F)(F)C(F)(F)C(F)(F)C(F)(F)F :
Response: inactive

* * *

- METHOD_DESCRIPTION: CEETOX_H295R_OHPROG: CeeTox H295R High-throughput Steroidogenesis Assay for OH-Progesterone (OHPROG) (AID 2283435)
- CONDITION_INFO: actives raise or lower the signal
The source made the active and inactive calls. Rule for the calls: active = hit-call score of the fitted dose curve at least 0.9, where 1 is the maximum; inactive = score below 0.9.
Pick one: active, inactive

>>> classification("c1ccc(B(c2ccccc2)c2ccccc2)cc1")
"inactive"
>>> classification("Cc1cccc(N(C)C)c1")
"inactive"
>>> classification("Nc1ccc(Oc2cccc(Oc3ccc(N)cc3)c2)cc1")
"active"
>>> classification("CCCCCCS")
"inactive"
>>> classification("C#C[C@]1(O)CC[C@H]2[C@@H]3CCc4cc(OC)ccc4[C@H]3CC[C@@]21C")
"active"

Request: Identify the outcome logged in this assay for the molecule shown: CC(Cc1ccc(O)c(O)c1)C(C)Cc1ccc(O)c(O)c1 (stereo unspecified)
Response: active

* * *

- METHOD_DESCRIPTION: ATG_NRF2_ARE_CIS: Attagene CIS-FACTORIAL HepG2 Assay for human Nuclear Factor Erythroid 2 Related Factor 2 (NFR2) response to Antioxidant Response Elements (ARE) (AID 2282992);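 as to AC50: reporter mRNA level measured by RT-PCR and capillary electrophoresis fluorescence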
- CONDITION_INFO: HepG2 Attagene ARE/NRF2 reporter, transcription factor activity; actives raise or lower the signal
Active and inactive are the calls of the source. Rule for the calls: active = hit-call score of the fitted dose curve at least 0.9, where 1 is the maximum; inactive = score below 0.9.
MEASURE: AC50

Observe how each entry below is paired with its result.
>>> endpoint_result("CC/C=C\\CCOC(=O)c1ccccc1")
"inactive"
>>> endpoint_result("C=CC(=O)OCC(F)(F)C(F)(F)C(F)(F)C(F)(F)COC(=O)C=C")
"12.8 µM (active)"
>>> endpoint_result("O=C(O)C(F)(F)C(F)(F)C(F)(F)C(F)(F)C(F)(F)C(F)(F)C(F)(F)C(F)(F)C(F)(F)C(F)(F)C(F)(F)C(F)(F)F")
"inactive"
>>> endpoint_result("Cc1cc(C)cc(O)c1")
"inactive"
>>> endpoint_result("CS(C)(=O)=O")
"27.5 µM (active)"
>>> endpoint_result("C=C(C)C(=O)OCCC(F)(F)C(F)(F)C(F)(F)C(F)(F)C(F)(C(F)(F)F)C(F)(F)F")
"inactive"
>>> endpoint_result("CC/C=C\\CCOC(C)=O")
"inactive"
>>> endpoint_result("O=C(O)C(F)(F)C(F)(F)C(F)(F)C(F)(F)C(F)(F)C(F)(F)C(F)(F)C(F)(F)C(F)(F)C(F)F")
"26.3 µM (active)"
>>> endpoint_result("c1ccc(B(c2ccccc2)c2ccccc2)cc1")
"33.9 µM (active)"
>>> endpoint_result("c1ccc(-c2ccccc2-c2ccccc2)cc1")
"32.9 µM (active)"

Provide AC50 for all items below, preserving their order.
1. CC(C)(C)c1ccc(OC2CCCCC2O)cc1 (centres undefined)
2. O=C(O)C(F)(F)C(F)(F)C(F)(F)C(F)(F)F
3. O=C(O)C(F)(F)C(F)(F)C(F)F
4. O=C(O)C(F)(F)C(F)(F)C(F)(F)F

Response:
1. 20.5 µM (active)
2. inactive
3. inactive
4. inactive

Report AC50 for every entry below.
1. C(=C(c1ccccc1)c1ccccc1)c1ccccc1
2. O[Si](c1ccccc1)(c1ccccc1)c1ccccc1
3. CCC(=O)OCCc1ccccc1
4. CCCCCCC(C)OC(=O)CCCCC(=O)OC(C)CCCCCC (centres undefined)
5. FC(F)(F)C(F)(F)C(F)(F)C(F)(F)C(F)(F)C(F)(F)CCS
6. CC(C)OC(=O)c1ccccc1C(=O)OC(C)C
7. CC(C)(C)C(=O)CC(=O)C(F)(F)C(F)(F)C(F)(F)F
8. C#C[C@]1(O)CC[C@H]2[C@@H]3CCc4cc(OC)ccc4[C@H]3CC[C@@]21C

Response:
1. 25.2 µM (active)
2. 31.1 µM (active)
3. inactive
4. inactive
5. inactive
6. inactive
7. inactive
8. 18 µM (active)

Your task in this section: give AC50 for each listed record.
1. CC(=O)Nc1ccc(N=Nc2cc(C)ccc2O)cc1
2. CCCCC(CC)COP(=O)(O)OCC(CC)CCCC (centres undefined)

Response:
1. 1.42 µM (active)
2. 26.6 µM (active)

* * *

- MEASURED_TARGET: Glucocorticoid receptor (Homo sapiens) (UniProt P04150)
- Sequence (P04150 whole entry, looked up): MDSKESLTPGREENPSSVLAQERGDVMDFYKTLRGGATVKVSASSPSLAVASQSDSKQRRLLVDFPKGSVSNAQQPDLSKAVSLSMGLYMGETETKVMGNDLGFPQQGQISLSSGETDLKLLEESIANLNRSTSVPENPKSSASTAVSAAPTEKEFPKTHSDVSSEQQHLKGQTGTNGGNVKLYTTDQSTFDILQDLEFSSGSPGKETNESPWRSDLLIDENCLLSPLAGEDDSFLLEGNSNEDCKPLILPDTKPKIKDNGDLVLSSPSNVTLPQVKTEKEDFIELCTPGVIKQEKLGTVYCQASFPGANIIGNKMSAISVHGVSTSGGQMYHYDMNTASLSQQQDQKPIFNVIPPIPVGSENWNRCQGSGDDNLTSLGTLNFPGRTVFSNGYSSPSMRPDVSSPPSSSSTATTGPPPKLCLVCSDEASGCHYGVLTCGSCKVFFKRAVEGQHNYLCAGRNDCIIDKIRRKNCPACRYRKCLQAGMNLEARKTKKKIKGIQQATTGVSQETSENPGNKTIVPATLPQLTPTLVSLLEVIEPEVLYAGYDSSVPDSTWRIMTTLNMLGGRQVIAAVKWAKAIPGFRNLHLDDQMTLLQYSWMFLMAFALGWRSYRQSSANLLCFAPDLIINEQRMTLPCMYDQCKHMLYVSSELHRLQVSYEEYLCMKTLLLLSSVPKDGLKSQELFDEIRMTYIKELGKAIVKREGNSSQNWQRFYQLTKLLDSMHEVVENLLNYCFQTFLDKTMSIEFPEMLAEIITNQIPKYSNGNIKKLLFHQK
- METHOD_DESCRIPTION: NVS_NR_hGR: NovaScreen (NVS) Nuclear Receptor Binding Assay for human Glucocorticoid Receptor (GR) (AID 2283363);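 as to AC50: activity is loss of specific radioligand binding signal relative to DMSO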
Inconclusive results are not listed. The source made the active and inactive calls. Rule for the calls: active = hit-call score of the fitted dose curve at least 0.9, where 1 is the maximum; inconclusive = response in the unintended direction; inactive = score below 0.9.
MEASURE: AC50

The cases that follow already have their AC50 on record.
>>> endpoint_result("CCN(Cc1cccc(S(=O)(=O)O)c1)c1ccc(C(=C2C=CC(=[N+](CC)Cc3cccc(S(=O)(=O)O)c3)C=C2)c2ccc(O)cc2S(=O)(=O)[O-])cc1")
"11.5 µM (active)"
>>> endpoint_result("Cc1cc(C)cc(O)c1")
"inactive"
>>> endpoint_result("CNC(=S)NC")
"inactive"
>>> endpoint_result("C#C[C@]1(O)CC[C@H]2[C@@H]3CCc4cc(OC)ccc4[C@H]3CC[C@@]21C")
"inactive"

// below: AC50 requested for another molecule
The reported AC50 of the molecule CCCCC(CC)COP(=O)(O)OCC(CC)CCCC (stereo not given) was 8.04 µM (active)
